Values from the Human Domainome abundance scans (Beltran et al. 2025)

B1: WW domain-containing transcription regulator protein 1, residues 116 to 162; numbered along this chain, Q9GZV5 (parent)
chain: QSYDVTDELPLPPGWEMTFTATGQRYFLNHIEKITTWQDPRKAMNQP

# Variants of: B1
# ASSAY INFO: abundance fitness (aPCA) (normalised: wild type 0, dead -1); higher = more abundant; growth selection in yeast, the domain comes from the species named
# REPORTED CONDITIONS: Homo sapiens

VARIANT CODE	abundance fitness
D39P	-0.588
Q38V	-0.108
P40W	-1
P13T	-0.072
L9C	-0.103
N29H	-0.278
Q24V	-0.12
A43L	-0.008
M44N	-0.215
Y3M	0.182
N45K	-0.052
T22Y	-0.422
I31N	-0.162
M17K	-0.214
T35H	-0.56
R25H	-0.385
F19G	-0.425
F19H	-0.385
T36D	-0.816
M44S	-0.089
T22V	-0.37
R41Y	-1.11
